Values compiled from paper PMC10763564.

# target-of-assay: T1, Transferrin Receptor 1 on HeLa cells (TfR1+) (human (endogenous in HeLa), UniProt P02786 1-760)
# T1 construct: Transferrin Receptor 1 (TfR1), endogenous on HeLa cells; source: endogenous, on HeLa cells
# T1 sequence (P02786 whole entry): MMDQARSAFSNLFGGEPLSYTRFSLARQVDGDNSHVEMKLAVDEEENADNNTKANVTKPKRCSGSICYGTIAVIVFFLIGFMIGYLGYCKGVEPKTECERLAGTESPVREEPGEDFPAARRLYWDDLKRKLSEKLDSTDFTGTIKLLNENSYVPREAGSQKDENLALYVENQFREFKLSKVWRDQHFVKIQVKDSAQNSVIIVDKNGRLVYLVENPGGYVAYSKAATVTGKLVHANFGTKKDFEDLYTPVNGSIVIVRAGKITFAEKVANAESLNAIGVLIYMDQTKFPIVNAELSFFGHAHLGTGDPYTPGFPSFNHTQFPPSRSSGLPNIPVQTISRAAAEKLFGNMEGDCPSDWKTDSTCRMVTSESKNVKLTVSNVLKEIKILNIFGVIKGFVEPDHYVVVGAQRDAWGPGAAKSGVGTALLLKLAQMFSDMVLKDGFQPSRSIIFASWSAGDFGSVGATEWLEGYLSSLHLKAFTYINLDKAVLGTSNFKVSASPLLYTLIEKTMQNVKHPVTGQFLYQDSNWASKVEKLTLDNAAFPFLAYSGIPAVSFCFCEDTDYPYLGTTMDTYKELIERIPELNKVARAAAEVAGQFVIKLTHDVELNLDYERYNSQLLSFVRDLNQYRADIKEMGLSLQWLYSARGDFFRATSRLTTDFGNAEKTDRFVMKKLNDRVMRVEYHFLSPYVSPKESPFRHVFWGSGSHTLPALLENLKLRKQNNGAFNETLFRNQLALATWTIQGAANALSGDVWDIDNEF
# assay-comment: flow cytometry on cells; sCy5-labelled peptides on HeLa cells (TfR1+, endogenous receptor)
# condition-summary: one partner purified
Starred links: 1 amine or outer side, 2 acyl side, 3 side chain; linkers in the order of their positions; H or OH if unused. Positions of bridges follow the written chain, without caps; N, C: chain ends. No end group written: not given here. TBMB = c1c(C[*:1])cc(C[*:3])cc1C[*:2]
property-name: Kd

Which Kd value is on record for {sulfo‑Cyanine5}-GSGCVHWDCRQWC (linker 4-9-13 via TBMB) [BrainBike-4 labelled with sulfo-Cyanine5] ? ~40 nM
